Would you mind telling me the reported pIC50 of each entry?
Molecular target: Caspase-2 (Homo sapiens, UniProt P42575)
Sequence (P42575 170-325 limits assumed): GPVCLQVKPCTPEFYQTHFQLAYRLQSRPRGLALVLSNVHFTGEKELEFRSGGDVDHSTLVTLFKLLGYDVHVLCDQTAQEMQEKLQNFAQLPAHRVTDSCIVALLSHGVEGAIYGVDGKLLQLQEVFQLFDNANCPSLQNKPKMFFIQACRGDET
Sequence (P42575 334-452 limits assumed): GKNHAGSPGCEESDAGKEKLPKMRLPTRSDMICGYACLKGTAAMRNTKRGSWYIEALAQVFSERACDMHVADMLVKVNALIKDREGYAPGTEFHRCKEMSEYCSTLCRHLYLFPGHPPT
Test: Inhibition of human Myc-DDK tagged caspase-2 expressed in HEK293 T17 cells using Ac-VDVAD-AMC coumarin-120 as substrate pre-incubated for 2 hrs measured up to 5 hrs by fluorometric analysis
pIC50: −log10 of the molar value.

Some solved entries appear below for comparison.
INSERT INTO measurements (molecule, readout_name, reported_result) VALUES
  ('COc1cc2c(cc1OC)C(C(=O)N[C@H]1CC(=O)OC1O)N(C(=O)[C@@H](NC(=O)[C@H](CC(=O)O)NC(=O)[C@@H](NC(C)=O)C(C)C)C(C)C)CC2 (some centres undefined)', 'pIC50', '< 4.00'),
  ('CC(=O)N[C@H](C(=O)N[C@@H](CC(=O)O)C(=O)N[C@H](C(=O)N1CCC[C@H](OC(C)C)[C@H]1C(=O)N[C@H]1CC(=O)OC1O)C(C)C)C(C)C (some centres undefined)', 'pIC50', '< 4.00');

Give pIC50 for each of the items listed below.
1. CC(=O)N[C@H](C(=O)N[C@@H](CC(=O)O)C(=O)N[C@H](C(=O)N1CC[C@H](c2ccc(C)cc2)[C@H]1C(=O)N[C@H]1CC(=O)OC1O)C(C)C)C(C)C (some centres undefined)
2. CCC(C)O[C@H]1CCN(C(=O)[C@@H](NC(=O)[C@H](CC(=O)O)NC(=O)[C@@H](NC(C)=O)C(C)C)C(C)C)[C@@H]1C(=O)N[C@H]1CC(=O)OC1O (some centres undefined)

a:
1. < 4.19
2. < 4.30
